# TESTED_ON: T1, recombinant protein His-fib-mfTL1A (Macaca fascicularis)
# T1 construct: also called monkey TL1A; Macaca fascicularis TL1A
# T1 chain: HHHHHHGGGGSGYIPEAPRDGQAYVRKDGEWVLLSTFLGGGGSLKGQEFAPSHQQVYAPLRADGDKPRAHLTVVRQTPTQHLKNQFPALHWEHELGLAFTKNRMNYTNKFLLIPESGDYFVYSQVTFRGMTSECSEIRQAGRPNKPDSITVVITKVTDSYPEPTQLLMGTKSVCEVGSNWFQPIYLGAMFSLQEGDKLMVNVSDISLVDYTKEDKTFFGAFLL
# METHOD_NOTES: SPR, Biacore T200; antibody captured by anti-human IgG (Fc), TL1A as analyte; 1:1 model
MEASURED_ENDPOINT: koff (s⁻¹)

[[record]]
binder = "mouse anti-TL1A monoclonal antibody S7B11 (antibody, V domains shown) VH: QVKLQQSGGELVRPGTSVKISCKASGYAFTNYWLGWIKQRPGHGLEWIGDIHPGRGNIYYNEKFKGKATLTADKSSSTAYMQLSSLTSEDSAVYFCAEGYDTFDYWGQGTTLTVSS VL: DIVMTQSPSYLAASPGETITINCRASKSISKYLAWYQEKPGKTNKLLIYSGSTLQSGIPSRFSGSGSGTDFTLTISSLEPEDFAMYYCQQHNEYPYTFGGGTKLEIKR"
measurement_unit = "s⁻¹"
value_reported = "6.93e-05"

